Experiment: protein stability index of a GFP-peptide fusion (GPS, HEK-293T) (PSI 1-6); higher = more stable;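 note: 24-mer peptide tiles fused after GFP, lentivirally expressed, FACS-sorted into six equal bins by GFP/DsRed ratio, decoded by Illumina sequencing, PSI is the read-weighted mean bin number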
Conditions: treatment: DMSO; c terminus: a fixed tail appended
sequences and their reported protein stability index
readout: protein stability index

| sequence-string | readout | value-measured |
| --- | --- | --- |
| EEDNWDPELMEHTEAESEQEGSSG [TEX19] | protein stability index | 5.7 |
| CSLDKRVILIFHCEFSSERGPRMC [CDC25B] | protein stability index | 2.28 |
| CLVCQASFCELHLKPHLEGAAFRD [TRIM29] | protein stability index | 3.68 |
| PKKISDLDHCANRVLMYGSELDAD [TPH1] | protein stability index | 4.58 |
| IRMIQEEKESTELRAEEIETRVTS [PPFIA4] | protein stability index | 5.22 |
| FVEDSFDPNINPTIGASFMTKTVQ [RAB22A] | protein stability index | 2.97 |
| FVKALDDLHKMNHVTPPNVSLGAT [JUNB] | protein stability index | 2.43 |
| YPALASKNGKKWEILNFNQYYEAC [ACSBG2] | protein stability index | 2.68 |
| SPLYADPYTPPATSHRRVTDVRGL [PLEKHN1] | protein stability index | 3.76 |
| GPLLDSLYWTKWYNNQSLGHGSHS [PKD2L1] | protein stability index | 2.51 |
| RRLLEGEDAHLTQYKKEPVTTRQV [KRT17] | protein stability index | 4.56 |
| NFIREQDLYALKSVKIPVRNHGIL [LYSMD4] | protein stability index | 2.27 |
| IHPKNPHAPTIHFNYRYFEVEEAD [CPOX] | protein stability index | 3.75 |
